study system: human MC4R (Homo sapiens, UniProt P32245)
Construct: host or cells: HEK-293 cells stably expressing the GScAMP22F split-luciferase cAMP sensor and hMC4R, G418 selection
Sequence (P32245 whole entry): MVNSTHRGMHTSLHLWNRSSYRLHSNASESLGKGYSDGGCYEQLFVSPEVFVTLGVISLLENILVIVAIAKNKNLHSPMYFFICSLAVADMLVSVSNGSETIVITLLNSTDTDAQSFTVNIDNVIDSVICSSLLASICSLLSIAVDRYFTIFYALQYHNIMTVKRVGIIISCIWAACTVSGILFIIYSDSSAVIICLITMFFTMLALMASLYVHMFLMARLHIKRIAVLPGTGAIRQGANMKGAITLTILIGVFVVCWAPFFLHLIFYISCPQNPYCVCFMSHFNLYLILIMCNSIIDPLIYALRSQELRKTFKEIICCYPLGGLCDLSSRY
assay procedure: split-luciferase cAMP sensor assay, agonist mode (measurement window 1), hMC4R
Assay type: cell-based
conditions: HEK-293 cells stably expressing hMC4R, agonist mode; read-out: MC4R cAMP EC50
Positions of bridges follow the written chain, without caps; N, C: chain ends. Non-standard residues stand in square brackets, D forms with d. Residues, ends and D or L forms follow the SMILES beside them. NMeW = CN[C@@H](Cc1c[nH]c2ccccc12)C(=O)O; d1Nal = N[C@H](Cc1cccc2ccccc12)C(=O)O; d2Nal = N[C@H](Cc1ccc2ccccc2c1)C(=O)O; NMeH = CN[C@@H](Cc1c[nH]cn1)C(=O)O; hCit = NC(=O)NCCCC[C@H](N)C(=O)O; 4Pal = N[C@@H](Cc1ccncc1)C(=O)O; Cit = NC(=O)NCCC[C@H](N)C(=O)O; Nle = CCCC[C@H](N)C(=O)O
assay readout: EC50 (nM)
One number for each entry, in nM.

Previously resolved entries follow.
compound: CC(=O)N[C@@H](CCCNC(=N)N)C(=O)N[C@H]1CSSC[C@@H](C(N)=O)NC(=O)[C@H](Cc2c[nH]c3ccccc23)NC(=O)[C@H](CCCNC(=N)N)NC(=O)[C@@H](Cc2ccccc2)NC(=O)[C@H](CCCNC(=N)N)NC(=O)CNC1=O [CTX-1293, Arg-cyclo(Cys-Gly-Arg-D-Phe-Arg-Trp-Cys)] (Ac-RCGR[dF]RWC-NH2; disulfide 2-8)
unit abbrev: nM
EC50: 0.25

compound: CCCC[C@H](NC(=O)[C@H](CCCNC(=N)N)NC(C)=O)C(=O)N[C@H]1CSSC[C@@H](C(N)=O)NC(=O)[C@H](Cc2c[nH]c3ccccc23)NC(=O)[C@H](CCCNC(=N)N)NC(=O)[C@@H](Cc2ccccc2)NC(=O)[C@H](Cc2ccncc2)NC1=O [CTX-1621] (Ac-R[Nle]C[4Pal][dF]RWC-NH2; disulfide 3-8 (inferred))
unit abbrev: nM
EC50: 2.9

compound: CC(=O)N[C@@H](CCCNC(=N)N)C(=O)N[C@H]1CSSC[C@@H](C(N)=O)NC(=O)[C@@H](Cc2ccc3ccccc3c2)NC(=O)[C@H](CCCNC(=N)N)NC(=O)[C@@H](Cc2ccccc2)NC(=O)[C@H](CCCNC(=N)N)NC(=O)[C@@H](C)NC1=O [CTX-1264] (Ac-RC[dA]R[dF]R[d2Nal]C-NH2; disulfide 2-8 (inferred))
unit abbrev: nM
EC50: 13

compound: CC(=O)N[C@@H](CCCNC(=N)N)C(=O)N[C@H]1CSSC[C@@H](C(N)=O)NC(=O)[C@@H](Cc2ccccc2)NC(=O)[C@H](CCCNC(=N)N)NC(=O)[C@@H](Cc2ccccc2)NC(=O)[C@H](CCCNC(=N)N)NC(=O)[C@@H](C)NC1=O [CTX-1257] (Ac-RC[dA]R[dF]R[dF]C-NH2; disulfide 2-8 (inferred))
unit abbrev: nM
EC50: 692

compound: CCCC[C@H](NC(=O)[C@H](CCCNC(=N)N)NC(C)=O)C(=O)N[C@H]1CSSC[C@@H](C(N)=O)NC(=O)[C@H](Cc2c[nH]c3ccccc23)NC(=O)[C@H](CCCNC(=N)N)NC(=O)[C@@H](Cc2cccc3ccccc23)NC(=O)[C@H](CCCNC(=N)N)NC1=O [CTX-1611] (Ac-R[Nle]CR[d1Nal]RWC-NH2; disulfide 3-8 (inferred))
unit abbrev: nM
EC50: 1.6

compound: CC(=O)N[C@H]1CSSC[C@@H](C(N)=O)NC(=O)[C@H](Cc2c[nH]c3ccccc23)NC(=O)[C@H](CCCNC(=N)N)NC(=O)[C@@H](Cc2ccccc2)NC(=O)[C@H](CCCNC(=N)N)NC(=O)[C@@H](C)NC1=O [CTX-1627, cyclo(Cys-D-Ala-Arg-D-Phe-Arg-Trp-Cys)] (Ac-C[dA]R[dF]RWC-NH2; disulfide 1-7 (inferred))
unit abbrev: nM
EC50: 1.4

Hi, could you look up EC50 for each item in my list?
1. C[C@H]1NC(=O)CSC[C@@H](C(N)=O)NC(=O)[C@H](Cc2c[nH]c3ccccc23)NC(=O)[C@H](CCCNC(=N)N)NC(=O)[C@@H](Cc2ccccc2)NC(=O)[C@H](CCCNC(=N)N)NC1=O [CTX-1642] ({CH2CO}-[dA]R[dF]RWC-NH2; thioether N-6)
2. N=C(N)NCCC[C@@H]1NC(=O)[C@@H](Cc2ccccc2)NC(=O)[C@H](CCCNC(N)=O)NC(=O)CNC(=O)CSC[C@@H](C(N)=O)NC(=O)[C@H](Cc2c[nH]c3ccccc23)NC1=O [CTX-1646] ({CH2CO}-G[Cit][dF]RWC-NH2; thioether N-6)

1: 2.9; 2: 13

Could you report EC50 for every entry in the following list?
1. CCCC[C@H](NC(=O)[C@H](CCCNC(=N)N)NC(C)=O)C(=O)N[C@H]1CSSC[C@@H](C(N)=O)NC(=O)[C@H](Cc2c[nH]c3ccccc23)NC(=O)[C@H](CCCNC(=N)N)NC(=O)[C@@H](Cc2ccccc2)NC(=O)[C@H](CCCCNC(N)=O)NC1=O [CTX-1618] (Ac-R[Nle]C[hCit][dF]RWC-NH2; disulfide 3-8 (inferred))
2. C[C@H]1NC(=O)CSC[C@@H](C(N)=O)NC(=O)[C@H](Cc2c[nH]c3ccccc23)N(C)C(=O)[C@H](CCCNC(=N)N)NC(=O)[C@@H](Cc2ccccc2)NC(=O)[C@H](Cc2c[nH]cn2)N(C)C1=O [CTX-1203] ({CH2CO}-[dA][NMeH][dF]R[NMeW]C-NH2; thioether N-6)
3. N=C(N)NCCC[C@@H]1NC(=O)[C@@H](Cc2ccccc2)NC(=O)[C@H](Cc2c[nH]cn2)NC(=O)CNC(=O)CSC[C@@H](C(N)=O)NC(=O)[C@H](Cc2ccccc2)NC1=O [CTX-1653] ({CH2CO}-GH[dF]RFC-NH2; thioether N-6)
4. N=C(N)NCCC[C@@H]1NC(=O)[C@@H](Cc2ccccc2)NC(=O)[C@H](Cc2c[nH]cn2)NC(=O)CNC(=O)CSC[C@@H](C(N)=O)NC(=O)[C@H](Cc2c[nH]c3ccccc23)NC1=O [CTX-1644] ({CH2CO}-GH[dF]RWC-NH2; thioether N-6)

1. 1.8
2. 16
3. 1230
4. 2.3

Can you look up the measured EC50 of CC(=O)N[C@@H](CCCNC(=N)N)C(=O)N[C@H]1CSSC[C@@H](C(N)=O)NC(=O)[C@H](Cc2c[nH]c3ccccc23)NC(=O)[C@H](CCCNC(=N)N)NC(=O)[C@@H](Cc2ccccc2)NC(=O)[C@H](CCCNC(N)=O)NC(=O)[C@@H](C)NC1=O for me?
1.7

====

study system: human MC4R (Homo sapiens)
Construct: host or cells: HEK-293 cells stably expressing the GScAMP22F split-luciferase cAMP sensor and hMC4R, G418 selection
assay procedure: split-luciferase cAMP sensor assay, agonist mode (measurement window 1), hMC4R
Assay type: cell-based
Positions of bridges follow the written chain, without caps; N, C: chain ends. Non-standard residues stand in square brackets, D forms with d. Residues, ends and D or L forms follow the SMILES beside them. dPhe(4-Br) = N[C@H](Cc1ccc(Br)cc1)C(=O)O
assay readout: MC4R selectivity vs MC3R
One number for each entry.

Solved entries:
molecule: CC(=O)N[C@@H](CCCNC(=N)N)C(=O)N[C@H]1CSSC[C@@H](C(N)=O)NC(=O)[C@@H](Cc2c[nH]c3ccccc23)NC(=O)[C@@H](CCCNC(=N)N)NC(=O)[C@@H](Cc2ccccc2)NC(=O)[C@H](CCCNC(=N)N)NC(=O)[C@@H](C)NC1=O [CTX-1283] (Ac-RC[dA]R[dF][dR][dW]C-NH2; disulfide 2-8)
observed: 0.12
--
molecule: CC(=O)N[C@@H](CCCNC(=N)N)C(=O)N[C@H]1CSSC[C@@H](C(=O)N[C@@H](CCCCN)C(=O)N2CCC[C@H]2C(=O)N[C@H](C(N)=O)C(C)C)NC(=O)[C@@H](Cc2c[nH]c3ccccc23)NC(=O)[C@H](CCCNC(=N)N)NC(=O)[C@@H](Cc2ccc(Br)cc2)NC(=O)[C@H](CCCNC(=N)N)NC(=O)[C@@H](C)NC1=O [CTX-1216] (Ac-RC[dA]R[dPhe(4-Br)]R[dW]CKPV-NH2; disulfide 2-8 (inferred))
observed: 1.99

Turning to the following molecule.
What value of MC4R selectivity vs MC3R has been reported for the following molecule? CC(=O)N[C@@H](CCCNC(=N)N)C(=O)N[C@H]1CSSC[C@@H](C(=O)N[C@@H](CCCNC(=N)N)C(=O)N[C@@H](Cc2ccccc2)C(=O)NCC(=O)O)NC(=O)[C@@H](Cc2c[nH]c3ccccc23)NC(=O)[C@H](CCCNC(=N)N)NC(=O)[C@@H](Cc2ccc(Br)cc2)NC(=O)[C@H](CCCNC(=N)N)NC(=O)[C@@H](C)NC1=O [CTX-1219] (Ac-RC[dA]R[dPhe(4-Br)]R[dW]CRFG-OH; disulfide 2-8 (inferred))
1.99
